# Tested on: OVCAR-3 ovarian
# Assay Notes: NCI tumour cell line growth inhibition, 48 h
Measured Metric: TGI

Molecule	Endpoint Result
C\C(=N/N=C1/C(=C\N(C)C)C(=O)NC(=O)N1C)c1ccc(Cl)cc1	> 100 µM
CCOC(=O)c1nnsc1NN	> 100 µM
COc1c(O)c2c(=O)cc(OC)c3c4c(OC)cc(=O)c5c(O)c(OC)c6c(c(c1C(C(C)O)C6C(C)O)c23)c54 (stereo not given)	2.66 µM
CCCCN(CC)CC(C(C)=O)c1c(O)c2ccccc2oc1=O (stereo not given)	> 100 µM
COc1cnc2c(c1)C(=O)c1c-2n(CCCN2CCN(C)CC2)c(=O)c2cc([N+](=O)[O-])ccc12	0.359 µM
C/C(=N/NC(=O)C[N+](C)(C)C)C(CN(C)C)C(=O)Nc1ccccc1 (stereo not given)	> 100 µM
COC(=O)C(/C(=N\O)C(=O)Nc1cccc(Cl)c1C)c1cnc2ccccc2n1 (stereo not given)	> 100 µM
CCNC(=O)c1noc(-c2cc(C(C)C)c(O)cc2O)c1-c1ccc(CN2CCOCC2)cc1	19.1 µM
COC(=O)/C(C#N)=C(/NCCN)Nc1ccccc1	> 100 µM
C[N+](C)(C)CC1CCCCC1O (stereo not given)	> 100 µM
